assay: NCI Yeast Anticancer Drug Screen. Data for the bub3 strain (AID 167); details: S. cerevisiae bub3 mutant strain, at 50.0 µM, stronger effect = higher value
Compounds without any hit were thinned out: in the full panel of roughly 79,000, 15% have a hit.
I'd be grateful if you could share measured growth inhibition for these entries.
All answers are understood in %, so give the number only.

INPUT: Form field: reported growth inhibition of CC(=O)OCC1OC(n2nc(C#N)c(C#N)n2)C(OC(C)=O)C1OC(C)=O (stereo not given)
OUTPUT: -5.85

INPUT: Please report the recorded growth inhibition for C/C(=N/NC(=O)c1ccncc1)C(F)(F)F .
OUTPUT: 14

INPUT: Returns the measured growth inhibition for the input molecule. Input: N#Cc1nc(COCc2ccccc2)oc1N
OUTPUT: -19.5

INPUT: Query: growth inhibition; subject: O=c1[nH]nc(-c2ccccc2)n1-c1ccncc1
OUTPUT: 12.7

INPUT: Which growth inhibition reading was recorded for the molecule COC(=O)c1cc(-c2ccccc2)nc2c(Cl)cc(Cl)cc12 ?
OUTPUT: 11.7

INPUT: Consider the molecule shown here: CCOc1nc(N)nc(C)c1N=Nc1ccccc1C What is its recorded growth inhibition?
OUTPUT: 12.2

INPUT: Given the molecule C=CCOC(=O)NCC(=O)NC(C)C(N)=O (stereo not given) , what is its reported growth inhibition?
OUTPUT: -5.5

INPUT: So what's the measured growth inhibition for this one? COC(=O)c1ccc(/C=C/c2cc(O)ccc2O)cc1
OUTPUT: 52.5

INPUT: // growth inhibition lookup, key: NC(=S)N/N=C/c1ccncc1
OUTPUT: 9.35

INPUT: Need growth inhibition, item O=C(NC(Cc1ccc(O)cc1)C(=O)O)C(=O)c1c[nH]c2ccc([N+](=O)[O-])cc12 (stereo not given)
OUTPUT: 2.8

INPUT: Look at this molecule and give its reported growth inhibition. O=c1nc(OCCO)c([N+](=O)[O-])c(C(Cl)(Cl)Cl)[nH]1
OUTPUT: 80.5

INPUT: So what does the record say about growth inhibition for Cc1cc2nnn(-c3ncccc3[N+](=O)[O-])c2cc1C ?
OUTPUT: 9.8

INPUT: Which growth inhibition value is on record for c1ccc(SCCP(CCP(c2ccccc2)c2ccccc2)c2ccccc2)cc1 (stereo not given) ?
OUTPUT: 37.8

INPUT: # growth inhibition lookup, item C=CCc1ccc(OC(=O)Nc2ccc(S(=O)(=O)CC)cc2)c(OC)c1
OUTPUT: -14.2

INPUT: # growth inhibition lookup, item COC1/C=C\OC2(C)Oc3c(C)c(O)c4c(O)c(c5c(c4c3C2=O)NC2(CCN(C)CC2)N=5)=NC(=O)/C(C)=C\C=C\C(C)C(O)C(C)C(O)C(C)C(OC(C)=O)C1C (stereo not given)
OUTPUT: 7

INPUT: // query growth inhibition value for entry NS(=O)(=O)c1ccc(NC(=O)CCl)cc1
OUTPUT: 3.3

INPUT: Fill in the blank: the reported growth inhibition of CC(C)=NC(C(=O)O)C(C)(C)S (stereo not given) is ____.
OUTPUT: -62

INPUT: Fill blank: measured growth inhibition of the molecule CCCC(O)C(=O)C(CCC)N(CC)CC (stereo not given) is ____.
OUTPUT: 11.1

INPUT: Any idea what its growth inhibition is? The molecule is O=C(COc1cc(Cl)c(Cl)cc1Cl)Nc1c(Cl)cc(Cl)cc1Cl
OUTPUT: -2.15

INPUT: Request the reported growth inhibition associated with C#CC(C)(C)Oc1cc(O)c2c(=O)c3ccccc3n(C)c2c1
OUTPUT: 0.2

INPUT: Can you share its growth inhibition? I mean this molecule: N#CC/C(C#N)=C/OC(=O)c1ccc(Cl)cc1
OUTPUT: -17.9

INPUT: growth inhibition lookup needed for CSC1=NC=C(C#N)C2=NC(c3c(F)cccc3Cl)NN12 (stereo not given) , thanks.
OUTPUT: 24.6

INPUT: Would you kindly share the measured growth inhibition for COc1ccc(-c2c(C(C)=O)c(-c3ccccc3)n(C3OC(COC(C)=O)C(OC(C)=O)C(OC(C)=O)C3OC(C)=O)c(=S)c2C#N)cc1 (stereo not given) ?
OUTPUT: 0.75

INPUT: Name the reported growth inhibition value associated with the molecule O=C(O)c1csc(C(=O)O)c1
OUTPUT: 12.4

INPUT: Reported growth inhibition for Cc1cccc(C)c1NC(=O)CNc1ncccn1 : what is it?
OUTPUT: 19.1

INPUT: Item under review: C1CCN(CCC2CCNCC2)C1 . Reported growth inhibition?
OUTPUT: -1

INPUT: Any idea what growth inhibition was measured for N#C/C(=C\c1ccc2ccccc2c1)c1ccccc1 ?
OUTPUT: 25.7

INPUT: Entry under review: N=C1N=Nc2nc(C(C(=O)c3cccc(O)c3)c3nc4n(c3O)C(=N)N=N4)c(O)n21 (stereo not given) . Reported growth inhibition?
OUTPUT: -2.75

INPUT: Return reported growth inhibition; argument: COc1cc2c(cc1OC)[C@H]1C(COC(=O)Nc3ccccc3)CN1CC2 (stereo not given in full)
OUTPUT: -30.6

INPUT: Requested field: growth inhibition. Item: CN(C)c1ccc(C(=O)C2N=NCC2c2ccccc2)cc1 (stereo not given)
OUTPUT: 12.8

INPUT: // query growth inhibition value for entry Cc1ccccc1NC(=S)NN
OUTPUT: 11.9

INPUT: Given CSc1ccc(C)c(/C=N/Nc2ccc([N+](=O)[O-])cc2[N+](=O)[O-])c1 , state its recorded growth inhibition.
OUTPUT: 0.5

INPUT: // query growth inhibition value for entry CC(=O)Nc1ccc2c(c1)C(P(=O)(OC(C)C)OC(C)C)c1ccccc1-2 (stereo not given)
OUTPUT: 34.4

INPUT: Which growth inhibition is reported for this molecule? O=C1OC(c2cccc(Cl)c2)=N/C1=C\c1cccc([N+](=O)[O-])c1
OUTPUT: 17.6

INPUT: For O=c1c2cc(Cl)ccc2on1CN1CCOCC1 , what is its reported growth inhibition?
OUTPUT: 5.4

INPUT: growth inhibition lookup needed for Cc1nc(N)nc(C)c1N=Nc1ccccc1Br , thanks.
OUTPUT: 5.35

INPUT: Please report the recorded growth inhibition for COC(=O)c1c(C=O)cccc1[N+](=O)[O-] .
OUTPUT: -14.1

INPUT: # growth inhibition lookup, item O=C1c2ccccc2C(=O)c2c(Nc3ccc(Nc4cccc5c4C(=O)c4ccccc4C5=O)c4c3C(=O)c3ccccc3C4=O)cccc21
OUTPUT: -19.3

INPUT: Can you share its growth inhibition? I mean this molecule: CCCCCCCCCC(=O)N/N=C/c1c[nH]c2ccccc12
OUTPUT: 29.1

INPUT: Look up growth inhibition for this molecule: O=C(O)C(Br)C(Br)C(=O)Nc1cccc(Cl)c1 (stereo not given)
OUTPUT: 5.75

INPUT: Query (molecule): CCOC(=O)C(Cc1c[nH]c2ccccc12)NC(=O)C1(O)C(O)C2(CC)C=CCN3CCC4(c5cc(C6(C(=O)OC)CC7CC(CC)CN(CCc8c6[nH]c6ccccc86)C7)c(OC)cc5N(C)C14)C32 (stereo not given) ; field requested: growth inhibition
OUTPUT: 17

INPUT: What value of measured growth inhibition is listed for CN1C(=O)C(=O)N(C)C(=O)C1=O ?
OUTPUT: 12.8

INPUT: What measured growth inhibition goes with Cc1ccc(O)c(C(C)C)c1 ?
OUTPUT: -40.2

INPUT: Entry O=C(O)COc1cc([N+](=O)[O-])c(Cl)cc1Cl has what growth inhibition?
OUTPUT: -1.4

INPUT: Quick check: growth inhibition of CN(C)c1ccc([Si](c2ccc(N(C)C)cc2)c2ccc(N(C)C)cc2)cc1 ?
OUTPUT: -1.1

###

Task for the reader: assign each of the following compounds its reported growth inhibition.
assay: NCI Yeast Anticancer Drug Screen. Data for the mec2-1 strain (AID 157); conditions: S. cerevisiae mec2-1 strain, at 50.0 µM, stronger effect = higher value
This is part of a sample that, as a whole, favours compounds with a hit. Of some 79,000 tested, about 15% had one in any assay.
# unit: % | format: bare number

INPUT: Quick check: growth inhibition of NC(=O)c1cc2ccccc2c2ccccc12 ?
OUTPUT: -23.8

INPUT: Tell me the measured growth inhibition of CCOC(=O)C(NC(C)=O)(C(=O)OCC)C1CCCCC1=O (configuration not stated) , please.
OUTPUT: 2.65

INPUT: Name the recorded growth inhibition for CC(C)=CCN1c2ccccc2NC(=O)CC1C (configuration not stated) .
OUTPUT: -66.7

INPUT: Fill in the blank: the reported growth inhibition of O=C(O)CS/C(=N\S(=O)(=O)c1ccccc1)Nc1cccc(Cl)c1 is ____.
OUTPUT: -24.9

INPUT: For CC(C)(Cc1ccc(Cl)cc1)NC(N)=O , what is its reported growth inhibition?
OUTPUT: -73.7

INPUT: // query growth inhibition value for entry COc1ccc(C(=O)/C=C/c2cccc3ccccc23)cc1
OUTPUT: 25.7

INPUT: Item O=C(Nc1ccccc1)C1C2C=CC(C2)C1C(=O)Nc1ccccc1 (configuration not stated) has what recorded growth inhibition?
OUTPUT: 27.9

INPUT: growth inhibition lookup needed for O=C(/C=C\c1ccccc1)OCC(=O)c1ccc(-c2ccccc2)cc1 , thanks.
OUTPUT: -2.3

INPUT: I would be grateful if you could share the reported growth inhibition for CCOC(=O)C1C=NC([N+](=O)[O-])=C1Br (configuration not stated) .
OUTPUT: 24.8

INPUT: Record request: growth inhibition value, item Cc1sc2[nH]c(=O)oc(=O)c2c1C
OUTPUT: -10.1

INPUT: Name the recorded growth inhibition for CCOC(=O)c1ccc(-n2cnc(-c3ccc([N+](=O)[O-])cc3)c2)cc1 .
OUTPUT: -7.2

INPUT: Name the reported growth inhibition value associated with the compound CC(=O)OC1=C(OC(C)=O)N(S(=O)(=O)c2ccc(C)cc2)CCc2ccccc21
OUTPUT: 20.4
